The reader will find reported growth values listed item by item below.
Tested on: NCI-H322M lung
Assay: NCI-60 one-dose screen, 48 h (100 = growth as untreated, 0 = no growth, -100 = all killed)
Settings: 10 µM unless noted
This is part of a sample that, as a whole, favours compounds with a hit. Of some 83,000 tested, about 20% had one in any assay. Activity calls are given as the source filed them. Rule for the calls: active = growth percent below 10; inactive = the rest.
attribute_measured: growth

{"molecule": "COc1cc2c(c(OC)c1)C1c3cc(OC)ccc3NC(=O)N1CC2 (stereo unspecified)", "observed_value": "102% (inactive)"}
{"molecule": "CCOC(=O)c1sc2nc(-c3cc(OC)c(OC)c(OC)c3)nc(N3CCOCC3)c2c1C", "observed_value": "48.2% (inactive)"}
{"molecule": "Cc1cnc(N)nc1OCC(C)(C)CNC(=O)c1cccc(-c2ccc(S(=O)(=O)Nc3ccc4c(c3)N(C(=O)C3CC3)CCC4)cc2)c1", "observed_value": "84.2% (inactive)"}
{"molecule": "Cc1nc(Cl)c2c(n1)N(C)c1ccc(Cl)cc1C(C)C2 (stereo unspecified)", "observed_value": "97.1% (inactive)"}
{"molecule": "Ic1ccc2[nH]cc(SSc3c[nH]c4ccc(I)cc34)c2c1", "observed_value": "57.8% (inactive)"}
{"molecule": "O=C1CN(Cc2ccc(C(=O)NO)cc2)C(=O)[C@@H](Cc2ccccc2)N1", "observed_value": "102% (inactive)"}
{"molecule": "CC[C@@](C)(NC(=O)[C@H](C)NC(=O)CCNC(=O)C(C)(C)NC(=O)[C@H](C)NC(=O)[C@@H]1CCCN1C(=O)[C@@](C)(CC)NC(=O)[C@H](Cc1ccccc1)NC(=O)C1CCCN1C(=O)C(C)(C)NC(=O)C1CCCN1C(=O)C(C)(C)NC(C)=O)C(=O)NCCC(=O)N[C@@H](CC(C)C)C(=O)NC(C)(C)C(=O)NCCC(=O)N[C@@H](CC(C)C)C(=O)NC(C)(C)C(=O)NC(C)(C)C(=O)N[C@@H](CC(C)C)C(=O)NCCC(=O)NCO (stereo partly specified)", "observed_value": "-87.9% (active)"}
{"molecule": "CCOC(=O)c1nn(C2CCCCO2)c2ccc(NS(=O)(=O)c3ccc(C)cc3)cc12 (stereo unspecified)", "observed_value": "104% (inactive)"}
{"molecule": "Nc1ccc(Cl)c([N+](=O)[O-])c1", "observed_value": "106% (inactive)"}
{"molecule": "COC(=O)[C@]12CCC(C)(C)C[C@H]1C1=CC[C@@H]3[C@@]4(C)C/C(=C/c5cccnc5)C(=O)C(C)(C)[C@@H]4CC[C@@]3(C)[C@]1(C)CC2", "observed_value": "-13.4% [100 µM] (active)"}
{"molecule": "CCCCN(CCCC)CC(O)c1ccc(OCc2ccccc2)c2ccccc12 (stereo unspecified)", "observed_value": "90% (inactive)"}
{"molecule": "COc1ccc2nc3ccccc3c(NCCNCCO)c2c1", "observed_value": "-25% (active)"}
{"molecule": "CC1(C)CC(=O)c2c(ccc(C(=O)C[C@@H](N)CO)c2N)O1", "observed_value": "5.96% (active)"}
{"molecule": "C=C(C)[C@@H]1CC[C@]2(C(=O)O)CC[C@]3(C)[C@H](CC[C@@H]4[C@@]5(C)C/C(=C/c6ccco6)C(=O)C(C)(C)[C@@H]5CC[C@]43C)[C@@H]12", "observed_value": "-87.9% [100 µM] (active)"}
{"molecule": "CCOc1cccc2c(NC(C)CCCN(CC)CC)c(C)cnc12 (stereo unspecified)", "observed_value": "91.8% (inactive)"}
{"molecule": "Cc1cccc(/C=C2\\N=C(c3ccccc3)N(c3ccc(S(N)(=O)=O)cc3)C2=O)c1", "observed_value": "97.5% (inactive)"}
{"molecule": "C=C(C)[C@@H]1CC[C@]2(COCCC#N)CC[C@]3(C)[C@H](CC[C@@H]4[C@@](C)(CCCNCCC#N)[C@H](C(=C)C)CC[C@]43C)[C@@H]12", "observed_value": "72.2% [100 µM] (inactive)"}
{"molecule": "CCCCCCCCCCCCCCCCCCNC(=S)N/N=C/c1ccc(OC)c(OC)c1", "observed_value": "98.7% (inactive)"}
{"molecule": "CSc1cccc([N+](=O)[O-])c1", "observed_value": "102% (inactive)"}
{"molecule": "O=C(COc1cccc(/C=C2\\Oc3ccccc3C2=O)c1)c1ccc([N+](=O)[O-])cc1", "observed_value": "115% (inactive)"}
{"molecule": "CCN(CC)CCSC(=O)C(O)(c1ccccc1)C1CCCC1 (stereo unspecified)", "observed_value": "118% (inactive)"}
